- assay_system: human Fc (human)
- assay_text: ELISA, negative control
Please provide measured optical density for the entries that follow.
The reply should contain only the number, in OD.

Request: Identify optical density associated with the binder 368_F09 (antibody, V domains shown) VH: EVQLLESGGGLVQPGGSLRLSCAASGFTFSSYGMNWVRQAPGKGLEWVSGINYNSGYTSYADSVKGRFTISRDNSKNTLYLQMNSLRAEDTAVYYCARGANWHDTHLDYWGQGTLVTVSS VL: DIQMTQSPSSLSASVGDRVTITCRASQSILTYLNWYQQKPGKAPKLLIYAASSLQSGVPSRFSGSGSGTDFTLTISSLQPEDFATYYCQQSYETPLTFGGGTKVEIK
Response: 0.242

Request: Identify optical density associated with the binder 368_A12 (antibody, V domains shown) VH: EVQLLESGGGLVQPGGSLRLSCAASGFTFDSYSMHWVRQAPGKGLEWVSSINYNSGYKGYADSVKGRFTISRDNSKNTLYLQMNSLRAEDTAVYYCARAANWHDTALDYWGQGTLVTVSS VL: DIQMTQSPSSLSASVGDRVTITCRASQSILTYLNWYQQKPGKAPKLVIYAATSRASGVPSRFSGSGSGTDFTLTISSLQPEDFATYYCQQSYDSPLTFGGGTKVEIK
Response: 0.425

Request: Identify optical density associated with the binder 375_F08 (antibody, V domains shown) VH: EVQLLESGGGLVQPGGSLRLSCAASGFTFSSYGMNWVRQAPGKGLEWVSSINYNSGYKSYADSVKGRFTISRDNSKNTLYLQMNSLRAEDTAVYYCARGANWHDTHLDYWGQGTLVTVSS VL: DIQMTQSPSSLSASVGDRVTITCRASQSILSYLNWYQQKPGKAPKLLIYAATSRHSGVPSRFSGSGSGTDFTLTISSLQPEDFATYYCQQSYDNPLTFGGGTKVEIK
Response: 0.201

The reported numbers originate from patent US20210380703A1.
